experiment: Quantitative High-Throughput drug screen in 47 multiple myeloma cell lines against the NCATS MIPE library collection: NCIH929_DSMZ cell viability assay (AID 1918978); details: NCI-H929 myeloma viability, CellTiter-Glo ATP, 48 h; series mostly up to 45.8 µM; also: nearly all actives have a fitted effect of over 35% in size
Inconclusive results are not listed. The source made the active and inactive calls. Calls follow the shape of the dose curve; as a rule, active = well fitted cell-killing curve with a large enough effect; inconclusive = small, poorly fitted or top-dose-only effect; inactive = no such curve, though single readings can be large or run the other way.
The reply should name one outcome from active, inactive

Solved entries:
{"molecule": "O=[N+]([O-])c1cn2c(n1)OC[C@@H](OCc1ccc(OC(F)(F)F)cc1)C2", "categoryLabel": "inactive"}
{"molecule": "Oc1ccc([C@@H]2Oc3ccc(O)cc3[C@@H]3CCC[C@@H]32)cc1", "categoryLabel": "active"}
{"molecule": "COc1cc(OC)cc(-c2ccc3ncc4ccc(=O)n(-c5ccc(N6CCNCC6)c(C(F)(F)F)c5)c4c3c2)c1", "categoryLabel": "active"}
{"molecule": "CC1(C)O[C@@H]2C[C@H]3[C@@H]4CCC5=CC(=O)C=C[C@]5(C)[C@@H]4[C@@H](O)C[C@]3(C)[C@]2(C(=O)CO)O1", "categoryLabel": "active"}

[ask] Status in this test for N=c1ccn2c(n1)O[C@H]1[C@@H](O)[C@@H](CO)O[C@H]12 ?
[reply] active

[ask] Status in this test for N#CC(=C(N)Sc1ccc(N)cc1)c1ccccc1C(F)(F)F ?
[reply] active

[ask] Status in this test for CCN(CC)CCCCNc1ncc2c(n1)N(C)C(=O)N(c1c(Cl)c(OC)cc(OC)c1Cl)C2 ?
[reply] inactive
